Tested on: RKOE6
assay-protocol: cells
Design: species or system panel of human cancer cell lines; Eurofins OncoPanel proliferation; nuclei count by high-content fluorescence imaging, 10-point dose response
particulars: Homo sapiens, RKOE6, 72 h; cell count, curve inflection point, 3 days
Experimental: OncoPanel cancer cell proliferation assay was performed by Eurofins Panlabs, Inc. (Missouri, USA). Cancer cells were grown in RPMI 1640, 10% FBS, 2 mM L-alanyl-L-glutamine, 1 mM Na pyruvate, or a special medium. […] After a 3-day incubation period, cells were fixed and stained to allow fluorescence imaging of nuclei. […] Automated fluorescence microscopy was carried out using a Molecular Devices ImageXpress Micro XL high-content imager, and images were collected with a 4X objective. […]
measured-endpoint: EC50 (µM)
Numbers only here, please. The scale is µM.

Enquiry: Would you kindly share the measured EC50 for "C[C@@H]1CC(=O)NN=C1c1ccc(NN=C(C#N)C#N)cc1" ?
Return: 6.96

---

Tested on: HT1376
assay-protocol: cells
Parameters: species or system panel of human cancer cell lines; Eurofins OncoPanel proliferation; nuclei count by high-content fluorescence imaging, 10-point dose response
particulars: Homo sapiens, HT-1376, 72 h; cell count, 50% of maximum possible response, 3 days
Protocol: OncoPanel cancer cell proliferation assay was performed by Eurofins Panlabs, Inc. (Missouri, USA). Cancer cells were grown in RPMI 1640, 10% FBS, 2 mM L-alanyl-L-glutamine, 1 mM Na pyruvate, or a special medium. […] After a 3-day incubation period, cells were fixed and stained to allow fluorescence imaging of nuclei. […] Automated fluorescence microscopy was carried out using a Molecular Devices ImageXpress Micro XL high-content imager, and images were collected with a 4X objective. […]
pIC50: −log10 of the molar value.
measured-endpoint: pIC50

Enquiry: Would you kindly share the measured pIC50 for "C[C@@H]1CC(=O)NN=C1c1ccc(NN=C(C#N)C#N)cc1" ?
Return: < 4.00

---

Tested on: Colo 201
assay-protocol: cells
Set-up: species or system panel of human cancer cell lines; Eurofins OncoPanel proliferation; nuclei count by high-content fluorescence imaging, 10-point dose response
particulars: Homo sapiens, COLO 201, 72 h; cell count, curve inflection point, 3 days
measured-endpoint: pEC50
Field pEC50 (float): negative decimal logarithm of the concentration in molar.

Enquiry: Would you kindly share the measured pEC50 for C[C@@H]1CC(=O)NN=C1c1ccc(NN=C(C#N)C#N)cc1 [levosimendan] ?
Return: 4.17

---

Test system: FaDu
assay-protocol: cells
Set-up: species or system panel of human cancer cell lines; Eurofins OncoPanel proliferation; nuclei count by high-content fluorescence imaging, 10-point dose response
particulars: Homo sapiens, FaDu, 72 h; cell count, curve inflection point, 3 days
measured-endpoint: pEC50
Field pEC50 (float): negative decimal logarithm of the concentration in molar.

Enquiry: Would you kindly share the measured pEC50 for "C[C@@H]1CC(=O)NN=C1c1ccc(NN=C(C#N)C#N)cc1" ?
Return: 4.20

---

Test system: T24
assay-protocol: cells
Set-up: species or system panel of human cancer cell lines; Eurofins OncoPanel proliferation; nuclei count by high-content fluorescence imaging, 10-point dose response
particulars: Homo sapiens, T-24, 72 h; cell count, 50% of maximum possible response, 3 days
measured-endpoint: IC50 (µM)
Numbers only here, please. The scale is µM.

Enquiry: // lookup IC50 | system=T24 | key= "C[C@@H]1CC(=O)NN=C1c1ccc(NN=C(C#N)C#N)cc1"
Return: 6.95
